Test system: male mice
Assay: Acute toxicity, intraperitoneal (LD0, LD30, LD60, LD100)
Format: in vivo
Conditions: intraperitoneal
Readout: LD0 (maximum non-lethal dose)

{"Compound": "Cl.OC1(c2ccccc2)CN=CNC1 (stereo not shown) [CRL 41 382]", "LD0 (maximum non-lethal dose)": "greater than 256 mg/kg"}
{"Compound": "Cl.Clc1ccc(C2CN=CNC2)cc1 (stereo not shown) [CRL 41 336]", "LD0 (maximum non-lethal dose)": "greater than 64 mg/kg"}
{"Compound": "CN1C=NCC(c2ccccc2)C1.Cl (stereo not shown) [CRL 41 337]", "LD0 (maximum non-lethal dose)": "greater than 256 mg/kg"}
{"Compound": "Cl.Fc1ccccc1C1CN=CNC1 (stereo not shown) [CRL 41 329]", "LD0 (maximum non-lethal dose)": "greater than 64 mg/kg"}
{"Compound": "CC1=NCC(c2ccccc2)CN1.Cl (stereo not shown) [CRL 41 352]", "LD0 (maximum non-lethal dose)": "greater than 64 mg/kg"}

For the compound CC(=O)N1C=NCC(c2ccccc2)C1.Cl (stereo not shown) [CRL 41 378] , what LD0 (maximum non-lethal dose) is on record?
greater than 256 mg/kg
